# Tested on: MOOVA
# Procedure summary: Herbicidal activity for paddy test
# Format: in vivo
# Settings: 0.500 kg/ha
Reported property: pest or weed control at 500 g/ha

Compound	Target	Reported property	Result
CCON=C(CC)C1=C(O)CC(c2c(C)c3c(c(C)c2Cl)CC(C)(C)C3)CC1=O (centres unmarked)	MOOVA	pest or weed control at 500 g/ha	60%
CCCC(=NOCC=CCl)C1=C(O)CC(c2c(C)c(C)c3c(c2C)CC(C)(C)C3)CC1=O (centres unmarked)	MOOVA	pest or weed control at 500 g/ha	0%
CCON=C(CC)C1=C(O)CC(c2c(C)c(C)c3c(c2C)CC(C)(CC)C3)CC1=O (centres unmarked)	MOOVA	pest or weed control at 500 g/ha	50%
CCC(=NOCC=CCl)C1=C(O)CC(c2c(C)c(C)c3c(c2C)CC(C)(CC)C3)CC1=O (centres unmarked)	MOOVA	pest or weed control at 500 g/ha	100%
CCC(=NOC)C1=C(O)CC(c2c(C)c3c(c(C)c2Cl)CC(C)(C)C3)CC1=O (centres unmarked)	MOOVA	pest or weed control at 500 g/ha	70%
CCCC(=NOCC)C1=C(O)CC(c2c(C)c3c(c(C)c2Cl)CC(C)(C)C3)CC1=O (centres unmarked)	MOOVA	pest or weed control at 500 g/ha	0%
C=CCON=C(CC)C1=C(O)CC(c2c(C)c(C)c3c(c2C)CC(C)(C)C3)CC1=O (centres unmarked)	MOOVA	pest or weed control at 500 g/ha	0%
C=CCON=C(CCC)C1=C(O)CC(c2c(C)c3c(c(C)c2Cl)CC(C)(C)C3)CC1=O (centres unmarked)	MOOVA	pest or weed control at 500 g/ha	0%

---

# System: SCPJU
# Procedure summary: Herbicidal activity for paddy test
# Assay type: in vivo
# Settings: 0.008 kg/ha

Compound	Unit tag	pest or weed control at 8 g/ha
CCC(=NOCC=CCl)C1=C(O)CC(c2c(C)c(C)c3c(c2C)CC(C)(CC)C3)CC1=O (centres unmarked)	%	0
CCCC(=NOC)C1=C(O)CC(c2c(C)c(C)c3c(c2Cl)CC(C)(C)C3)CC1=O (centres unmarked)	%	0
CCON=C(CC)C1=C(O)CC(c2c(C)c(C)c3c(c2Cl)CC(C)(C)C3)CC1=O (centres unmarked)	%	0
CCON=C(CC)C1=C(O)CC(c2c(C)c(C)c3c(c2C)CC(C)(C)C3)CC1=O (centres unmarked)	%	0
CCON=C(CC)C1=C(O)CC(c2c(C)c(C)c3c(c2C)CC(C)(CC)C3)CC1=O (centres unmarked)	%	0
C=CCON=C(CC)C1=C(O)CC(c2c(C)c(C)c3c(c2C)CC(C)(CC)C3)CC1=O (centres unmarked)	%	0
CCC(=NOCC=CCl)C1=C(O)CC(c2c(C)c(C)c3c(c2C)CC(C)(C)C3)CC1=O (centres unmarked)	%	0
C=CCON=C(CC)C1=C(O)CC(c2c(C)c(C)c3c(c2C)CC(C)(C)C3)CC1=O (centres unmarked)	%	0
CCCC(=NOC)C1=C(O)CC(c2c(C)c(C)c3c(c2C)CC(C)(CC)C3)CC1=O (centres unmarked)	%	0
CCC(=NOC)C1=C(O)CC(c2c(C)c(C)c3c(c2C)CC(C)(C)C3)CC1=O (centres unmarked)	%	0
CCCC(=NOC)C1=C(O)CC(c2c(C)c(C)c3c(c2C)CC(C)(C)C3)CC1=O (centres unmarked)	%	0
C=CCON=C(CCC)C1=C(O)CC(c2c(C)c(C)c3c(c2C)CC(C)(CC)C3)CC1=O (centres unmarked)	%	0
C=C(Cl)CON=C(CC)C1=C(O)CC(c2c(C)c(C)c3c(c2C)CC(C)(CC)C3)CC1=O (centres unmarked)	%	0
C=CCON=C(CCC)C1=C(O)CC(c2c(C)c3c(c(C)c2Cl)CC(C)(C)C3)CC1=O (centres unmarked)	%	0
C=CCON=C(CC)C1=C(O)CC(c2c(C)c3c(c(C)c2Cl)CC(C)(C)C3)CC1=O (centres unmarked)	%	0
CCC(=NOC)C1=C(O)CC(c2c(C)c(C)c3c(c2C)CC(C)(CC)C3)CC1=O (centres unmarked)	%	0
CCC(=NOC)C1=C(O)CC(c2c(C)c3c(c(C)c2Cl)CC(C)(C)C3)CC1=O (centres unmarked)	%	0
CCCC(=NOCC=CCl)C1=C(O)CC(c2c(C)c(C)c3c(c2C)CC(C)(CC)C3)CC1=O (centres unmarked)	%	0
CCCC(=NOCC)C1=C(O)CC(c2c(C)c3c(c(C)c2Cl)CC(C)(C)C3)CC1=O (centres unmarked)	%	0
C=CCON=C(CC)C1=C(O)CC(c2c(C)c(C)c3c(c2Cl)CC(C)(C)C3)CC1=O (centres unmarked)	%	0
CCCC(=NOCC=CCl)C1=C(O)CC(c2c(C)c(C)c3c(c2C)CC(C)(C)C3)CC1=O (centres unmarked)	%	0
CCC(=NOC)C1=C(O)CC(c2c(C)c(C)c3c(c2Cl)CC(C)(C)C3)CC1=O (centres unmarked)	%	0
CCCC(=NOC)C1=C(O)CC(c2c(C)c3c(c(C)c2Cl)CC(C)(C)C3)CC1=O (centres unmarked)	%	0
CCON=C(CC)C1=C(O)CC(c2c(C)c3c(c(C)c2Cl)CC(C)(C)C3)CC1=O (centres unmarked)	%	0
CCCC(=NOCC)C1=C(O)CC(c2c(C)c(C)c3c(c2C)CC(C)(C)C3)CC1=O (centres unmarked)	%	0
C=CCON=C(CCC)C1=C(O)CC(c2c(C)c(C)c3c(c2C)CC(C)(C)C3)CC1=O (centres unmarked)	%	0

The reported numbers originate from patent US6096930A.
